Ref: patent US20240041042A1

System: Setaria viridis (SETVI)
Test details: Pre-emergence herbicidal action against SETVI
Assay type: in vivo
Particulars: dosage 320 g/ha
The reader will find reported Pre-emergence action against SETVI in % values listed item by item below.

{"columns": ["Compound", "Tested target", "Pre-emergence action against SETVI in %, %"],
 "data": [
  ["COCCOC(=O)COc1nn(-c2ccccn2)c(-c2ccc(F)nc2)c1Br [Example I-96]", "Setaria viridis (SETVI)", 100],
  ["CCOC(=O)[C@@H](C)Oc1nn(-c2nc(F)ccc2F)c(-c2ccc(F)nc2)c1Br [Example I-336]", "Setaria viridis (SETVI)", 100],
  ["O=C(O)COc1nn(-c2ccnc(F)c2)c(-c2ccc(F)nc2)c1Br [III-02]", "Setaria viridis (SETVI)", 80],
  ["Cc1cccnc1-n1nc(OCC(=O)O)c(Br)c1-c1cncc(F)c1 [Example I-204]", "Setaria viridis (SETVI)", 100],
  ["CCOC(=O)CCNC(=O)CSc1nn(-c2ccccn2)c(-c2cncc(F)c2)c1Br [Example I-82]", "Setaria viridis (SETVI)", 90],
  ["COC(=O)[C@@H](C)Oc1nn(-c2ncccc2F)c(-c2cncc(F)c2)c1Br [Example I-15]", "Setaria viridis (SETVI)", 100],
  ["COC(=O)COc1nn(-c2ncccc2F)c(-c2cncc(F)c2)c1Br [Example I-16]", "Setaria viridis (SETVI)", 100],
  ["COC(=O)[C@@H](C)Oc1nn(-c2ccc(F)cn2)c(-c2ccc(F)nc2)c1Br [Example I-11]", "Setaria viridis (SETVI)", 100]
]}

====

Tested on: Pharbitis purpurea (PHBPU)
Test details: Post-emergence herbicidal action against PHBPU
Type: in vivo
Particulars: dosage 80 g/ha
Protocol: Seeds of monocotyledonous and dicotyledonous weeds and crop plants are placed in sandy loam in plastic or organic planting pots, covered with soil and cultivated in a greenhouse under controlled growth conditions. 2 to 3 weeks after sowing, the test plants are treated at the one-leaf stage. […]
Reported endpoint: Post-emergence action against PHBPU in %

{"columns": ["Compound structure string", "Reported endpoint", "Result value"],
 "data": [
  ["COC(=O)[C@@H](C)Oc1nn(-c2nc(F)ccc2F)c(-c2ccc(F)nc2)c1Cl", "Post-emergence action against PHBPU in %", "80%"],
  ["CCOC(=O)COc1nn(-c2nc(F)ccc2F)c(-c2cncc(F)c2)c1Br", "Post-emergence action against PHBPU in %", "90%"],
  ["O=C(O)COc1nn(-c2ccccn2)c(-c2ccc(F)nc2)c1Cl", "Post-emergence action against PHBPU in %", "80%"],
  ["CCOC(=O)COc1nn(-c2ncccc2C)c(-c2cncc(F)c2)c1Br", "Post-emergence action against PHBPU in %", "90%"]
]}

====

System: Polygonum convolvulus (POLCO)
Test details: Pre-emergence herbicidal action against POLCO
Assay type: in vivo
Particulars: dosage 80 g/ha
Reported endpoint: Pre-emergence action against POLCO in %

{"columns": ["Compound", "Reported endpoint", "Result value"],
 "data": [
  ["CCOC(=O)COc1nn(-c2ncccc2F)c(-c2ccc(F)nc2)c1C(F)(F)F", "Pre-emergence action against POLCO in %", "80%"],
  ["COC(=O)[C@@H](C)Oc1nn(-c2ncccc2F)c(-c2ccc(F)nc2)c1C(F)(F)F", "Pre-emergence action against POLCO in %", "100%"],
  ["COC(=O)CNC(=O)[C@@H](C)Oc1nn(-c2ccccn2)c(-c2cncc(F)c2)c1Cl", "Pre-emergence action against POLCO in %", "80%"],
  ["O=C(COc1nn(-c2ccccn2)c(-c2ccc(F)nc2)c1Br)OCC1CCCO1 (centres unmarked)", "Pre-emergence action against POLCO in %", "90%"],
  ["CCOC(=O)[C@@H](C)Oc1nn(-c2ccccn2)c(-c2cncc(F)c2)c1Cl", "Pre-emergence action against POLCO in %", "90%"],
  ["COC(=O)[C@@H](C)Oc1nn(-c2ncccc2F)c(-c2cncc(F)c2)c1Br", "Pre-emergence action against POLCO in %", "90%"],
  ["COC(=O)COc1nn(-c2ncccc2F)c(-c2cncc(F)c2)c1Br", "Pre-emergence action against POLCO in %", "90%"],
  ["COC(=O)[C@@H](C)Oc1nn(-c2ccccn2)c(-c2ccnc(F)c2)c1Cl", "Pre-emergence action against POLCO in %", "90%"]
]}

====

Tested on: Zea mays (ZEAMX)
Assay type: in vivo
Particulars: pre-emergence, 320 g/ha, crop plant compatibility, in comparison to untreated controls
Reported endpoint: Pre-emergence action against ZEAMX in % (%)

{"columns": ["Compound structure string", "Tested target", "Result value"],
 "data": [
  ["CCOC(=O)COc1nn(-c2ncccc2OC)c(-c2ccc(F)nc2)c1Br", "Zea mays (ZEAMX)", 10],
  ["CCOC(=O)CSc1nn(-c2ccccn2)c(-c2cncc(F)c2)c1C1CC1", "Zea mays (ZEAMX)", 20],
  ["O=C(O)COc1nn(-c2ccnc(Cl)c2)c(-c2ccc(F)nc2)c1Br", "Zea mays (ZEAMX)", 0],
  ["COC(=O)[C@H](C)COC(=O)COc1nn(-c2ccnc(Cl)c2)c(-c2ccc(F)nc2)c1Br", "Zea mays (ZEAMX)", 20],
  ["COc1cccnc1-n1nc(OCC(=O)O)c(Cl)c1-c1ccc(F)nc1", "Zea mays (ZEAMX)", 10],
  ["COC(=O)COc1nn(-c2ncccc2OC)c(-c2ccc(F)nc2)c1Cl", "Zea mays (ZEAMX)", 0],
  ["COC(=O)COc1nn(-c2ncccc2F)c(-c2cncc(F)c2)c1Br", "Zea mays (ZEAMX)", 0],
  ["O=C(O)COc1nn(-c2ccccn2)c(-c2cncc(F)c2)c1C1CC1", "Zea mays (ZEAMX)", 0],
  ["COC(=O)CN(C)C(=O)COc1nn(-c2ccccn2)c(-c2ccc(F)nc2)c1Br", "Zea mays (ZEAMX)", 20]
]}

====

The reader will find reported Pre-emergence action against BRSNW in % values listed item by item below.
Test system: Brassica napus (BRSNW)
Assay type: in vivo
Particulars: 320 g/ha, crop plant compatibility, in comparison to untreated controls

{"columns": ["Compound", "Tested target", "Pre-emergence action against BRSNW in % / %"],
 "data": [
  ["O=C(CSc1nn(-c2ccccn2)c(-c2cncc(F)c2)c1Br)NS(=O)(=O)c1ccccc1", "Brassica napus (BRSNW)", 0],
  ["C[C@@H](Oc1nn(-c2ncccc2F)c(-c2ccc(F)nc2)c1Br)C(=O)O", "Brassica napus (BRSNW)", 20],
  ["CCOC(=O)COc1nn(-c2ncccc2F)c(-c2ccc(F)nc2)c1I", "Brassica napus (BRSNW)", 0],
  ["O=C(O)C1CCN(C(=O)COc2nn(-c3ccccn3)c(-c3cncc(F)c3)c2Br)C1 (racemic)", "Brassica napus (BRSNW)", 20],
  ["CCOC(=O)COc1nn(-c2ncccc2OC)c(-c2ccc(F)nc2)c1Br", "Brassica napus (BRSNW)", 20],
  ["CCOC(=O)COc1nn(-c2ncccc2OC)c(-c2ccc(F)nc2)c1I", "Brassica napus (BRSNW)", 0],
  ["COC(=O)C1CCN(C(=O)COc2nn(-c3ccccn3)c(-c3ccc(F)nc3)c2Br)C1 (centres unmarked)", "Brassica napus (BRSNW)", 10],
  ["COC(=O)C1CCCN(C(=O)COc2nn(-c3ccccn3)c(-c3ccc(F)nc3)c2Br)C1 (centres unmarked)", "Brassica napus (BRSNW)", 20]
]}

====

The reader will find reported Post-emergence action against ZEAMX in % values listed item by item below.
System: Zea mays (ZEAMX)
Format: in vivo
Particulars: crop plant compatibility, 80 g/ha, effect vs untreated controls
Reported endpoint: Post-emergence action against ZEAMX in % (%)

{"columns": ["Compound", "Reported endpoint", "Result value"],
 "data": [
  ["COC(=O)[C@H](C)COC(=O)COc1nn(-c2ccnc(Cl)c2)c(-c2ccc(F)nc2)c1Br", "Post-emergence action against ZEAMX in %", 20],
  ["COC(=O)[C@@H](C)Oc1nn(-c2ncccc2F)c(-c2ccc(F)nc2)c1I", "Post-emergence action against ZEAMX in %", 0],
  ["COC(=O)COc1nn(-c2ncccc2F)c(-c2ccnc(F)c2)c1Br", "Post-emergence action against ZEAMX in %", 0],
  ["CCOC(=O)[C@@H](C)Oc1nn(-c2ncccc2F)c(-c2ccnc(F)c2)c1Br", "Post-emergence action against ZEAMX in %", 0],
  ["COC(=O)CCOC(=O)COc1nn(-c2ccccn2)c(-c2ccc(Cl)nc2)c1Br", "Post-emergence action against ZEAMX in %", 10],
  ["COCCOC(=O)[C@@H](C)Oc1nn(-c2ncccc2F)c(-c2ccc(F)nc2)c1Br", "Post-emergence action against ZEAMX in %", 10],
  ["O=C(O)COc1nn(-c2ncccc2C(F)(F)F)c(-c2cncc(F)c2)c1I", "Post-emergence action against ZEAMX in %", 20],
  ["O=C(CSc1nn(-c2ccccn2)c(-c2cncc(F)c2)c1Br)NC1CC1", "Post-emergence action against ZEAMX in %", 0],
  ["COCCOC(=O)COc1nn(-c2ncccc2F)c(-c2ccc(F)nc2)c1C1CC1", "Post-emergence action against ZEAMX in %", 10],
  ["CCOC(=O)COc1nn(-c2ncccc2Cl)c(-c2ccc(F)nc2)c1Br", "Post-emergence action against ZEAMX in %", 10],
  ["C[C@@H](Oc1nn(-c2nc(F)ccc2F)c(-c2ccc(F)nc2)c1Cl)C(=O)O", "Post-emergence action against ZEAMX in %", 10],
  ["O=C(O)COc1nn(-c2ccncc2)c(-c2ccc(F)nc2)c1Br", "Post-emergence action against ZEAMX in %", 10],
  ["O=C(O)COc1nn(-c2ncccc2C(F)(F)F)c(-c2ccc(F)nc2)c1Cl", "Post-emergence action against ZEAMX in %", 0],
  ["CCOC(=O)COc1nn(-c2ccccn2)c(-c2ccc(F)nc2)c1C1CC1(F)F (stereo not shown)", "Post-emergence action against ZEAMX in %", 0],
  ["CCOC(=O)CCNC(=O)COc1nn(-c2ncccc2F)c(-c2ccc(OC)nc2)c1Br", "Post-emergence action against ZEAMX in %", 10],
  ["O=C(O)COc1nn(-c2ccccn2)c(-c2ccc(Cl)nc2)c1Br", "Post-emergence action against ZEAMX in %", 20]
]}
